System: gastric acid secretion
assayName: Gastric acid antisecretory activity in pylorus ligated rat model (intraduodenal)
Format: in vivo, Male wistar rats
setupConditions: Rattus norvegicus, intraduodenal, 2 h
metric: inhibition in vivo at 10 mg/kg

Study these solved cases before continuing.
[[record]]
compound = "Cc1c(N2CCCCC2)ccnc1C[S+]([O-])c1nc2cc(N3CCCCC3)c(F)cc2[nH]1 (stereo not shown) [Example 69]"
metric = "inhibition in vivo at 10 mg/kg"
reportedresult = "97%"

[[record]]
compound = "COc1ccnc(C[S+]([O-])c2nc3cc(N4CCCCC4)c(F)cc3[nH]2)c1C (stereo not shown) [Example 67]"
metric = "inhibition in vivo at 10 mg/kg"
reportedresult = "100%"

[[record]]
compound = "COc1ccnc(C[S+]([O-])c2nc3cc(N4CCOCC4)ccc3[nH]2)c1C (stereo not shown) [Example 87]"
metric = "inhibition in vivo at 10 mg/kg"
reportedresult = "90%"

[[record]]
compound = "COc1ccnc(C[S+]([O-])c2nc3cc(N4CCCCCC4)c(F)cc3[nH]2)c1C (stereo not shown) [Example 80]"
metric = "inhibition in vivo at 10 mg/kg"
reportedresult = "100%"

[[record]]
compound = "COc1ccnc(C[S+]([O-])c2nc3cc(N4CCCC4)c(F)cc3[nH]2)c1C (stereo not shown) [Example 84]"
metric = "inhibition in vivo at 10 mg/kg"
reportedresult = "93%"


Query: Item under review: COc1ccnc(C[S+]([O-])c2nc3cc(N4CCN(C(=O)OC(C)(C)C)CC4)c(F)cc3[nH]2)c1C (stereo not shown) [Example 73] . Reported inhibition in vivo at 10 mg/kg?
Reply: 93%

Query: Entry COc1ccnc(C[S+]([O-])c2nc3cc(N4CCN(C(=O)OC(C)(C)C)CC4)ccc3[nH]2)c1C (stereo not shown) [Example 90] please
Reply: 100%

Query: Entry COc1ccnc(C[S+]([O-])c2nc3cc(N4CCCCCC4)ccc3[nH]2)c1C (stereo not shown) [Example 91] please
Reply: 97%

Query: Entry COc1ccc2[nH]c([S+]([O-])Cc3ncc(C)c(OC)c3C)nc2c1 (stereo not shown) [Omeprazole, reference compound] please
Reply: 75%

Query: Entry Cc1c(N2CCOCC2)ccnc1C[S+]([O-])c1nc2cc(N3CCCCCC3)c(F)cc2[nH]1 (stereo not shown) [Example 82] please
Reply: 100%
